Give pKi for every item shown.
Biological target: C5a anaphylatoxin chemotactic receptor 1 (Homo sapiens, UniProt P21730)
Sequence (P21730 whole entry): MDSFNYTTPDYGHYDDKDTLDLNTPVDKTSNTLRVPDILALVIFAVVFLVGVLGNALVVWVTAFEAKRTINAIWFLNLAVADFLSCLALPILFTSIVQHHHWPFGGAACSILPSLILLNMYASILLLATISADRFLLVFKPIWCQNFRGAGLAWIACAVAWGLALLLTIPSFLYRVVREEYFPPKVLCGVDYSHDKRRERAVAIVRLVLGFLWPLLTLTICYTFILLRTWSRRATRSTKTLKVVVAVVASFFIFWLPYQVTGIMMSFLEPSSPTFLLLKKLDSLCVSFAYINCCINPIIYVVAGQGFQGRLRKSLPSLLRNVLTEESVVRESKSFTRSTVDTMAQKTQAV
Assay: Inhibitory activity against [125I]-rC5a binding to C5a anaphylatoxin chemotactic receptor in human polymorphonuclear leukocyte (PMNL) membranes
Answers are plain numbers, as −log10 of the molar value.

{"columns": ["substance", "reported-endpoint", "measured"],
 "data": [
  ["Ac-FKDMQLGR-OH", "pKi", 6.70]
]}

Please find the next substance below.
The measured pKi associated with H-LRANISFKDMQLGR-OH reads 6.09
